Data origin: ChEMBL document CHEMBL5291721

Entries and their AC50
- assay.target: UniProt:P11229
- Sequence (P11229 whole entry): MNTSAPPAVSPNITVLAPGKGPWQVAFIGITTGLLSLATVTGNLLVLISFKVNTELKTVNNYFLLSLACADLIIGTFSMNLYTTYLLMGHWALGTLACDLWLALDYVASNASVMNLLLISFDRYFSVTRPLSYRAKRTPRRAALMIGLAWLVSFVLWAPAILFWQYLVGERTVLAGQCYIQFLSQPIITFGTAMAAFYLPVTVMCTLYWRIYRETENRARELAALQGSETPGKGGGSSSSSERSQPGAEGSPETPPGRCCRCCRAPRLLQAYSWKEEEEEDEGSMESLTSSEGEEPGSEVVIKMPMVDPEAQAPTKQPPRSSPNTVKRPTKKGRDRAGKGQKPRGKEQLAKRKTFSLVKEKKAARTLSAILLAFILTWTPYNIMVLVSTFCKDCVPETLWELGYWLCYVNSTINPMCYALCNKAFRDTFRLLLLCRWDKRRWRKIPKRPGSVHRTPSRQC
- Assay type: functional, cell-based

- CC(O)(CC(=O)O)CC(=O)O [MEGLUTOL]: > 30 µM

Incoming: Please give the measured AC50 for this compound: CN1CCc2c(c3ccccc3n2Cc2ccccc2)C1 [MEBHYDROLIN]
Outgoing: > 30 µM

Incoming: Also need Cc1cccc(C)c1NC(=O)CN(CC(=O)O)CC(=O)O [LIDOFENIN] , thanks.
Outgoing: > 30 µM

Incoming: Also need CN1CCCC(CC2c3ccccc3Sc3ccccc32)C1 (centres undefined) [METHIXENE] , thanks.
Outgoing: > 30 µM

Incoming: Also need CC1(C)C[C@@H]1C(=O)N/C(=C\CCCCSC[C@H](N)C(=O)O)C(=O)O [CILASTATIN] , thanks.
Outgoing: > 30 µM

Incoming: Also need CC(C)NC[C@H](O)COc1ccc(CCOCC2CC2)cc1 [LEVOBETAXOLOL] , thanks.
Outgoing: > 30 µM

Incoming: Also need COc1c(OCCCN2CCOCC2)ccc2c1N=C(NC(=O)c1cnc(N)nc1)N1CCN=C21 [COPANLISIB] , thanks.
Outgoing: > 30 µM

Incoming: Also need CCCCCCCCCCCCCCCC(=O)OC[C@H](COP(=O)([O-])OCC[N+](C)(C)C)OC(=O)CCCCCCCCCCCCCCC [COLFOSCERIL PALMITATE] , thanks.
Outgoing: > 30 µM

Incoming: Also need Nc1ccn(C[C@@H](CO)OCP(=O)(O)O)c(=O)n1 [CIDOFOVIR] , thanks.
Outgoing: > 30 µM

----------
- assay.target: Growth hormone secretagogue receptor type 1 (Homo sapiens, UniProt Q92847); further: assay procedure not described here
- Sequence (Q92847 whole entry): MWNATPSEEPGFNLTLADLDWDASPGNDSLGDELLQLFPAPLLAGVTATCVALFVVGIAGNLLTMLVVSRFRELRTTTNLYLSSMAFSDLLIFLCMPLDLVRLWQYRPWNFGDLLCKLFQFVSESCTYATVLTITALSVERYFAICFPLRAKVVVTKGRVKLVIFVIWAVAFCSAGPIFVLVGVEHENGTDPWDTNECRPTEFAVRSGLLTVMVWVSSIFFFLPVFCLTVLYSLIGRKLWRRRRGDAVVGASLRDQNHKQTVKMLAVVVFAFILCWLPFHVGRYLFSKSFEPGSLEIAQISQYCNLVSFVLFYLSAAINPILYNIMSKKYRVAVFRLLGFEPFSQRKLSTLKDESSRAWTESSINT
Entries and their AC50

• CN1CCCN=C1/C=C/c1cccc(O)c1 [OXANTEL] = > 30 µM

Incoming: Recorded AC50 for C[C@H](CCC(=O)O)[C@H]1CC[C@H]2[C@@H]3[C@H](O)C[C@@H]4C[C@H](O)CC[C@]4(C)[C@H]3CC[C@]12C [CHENODIOL] with Growth hormone secretagogue receptor type 1 (Homo sapiens, UniProt Q92847), please?
Outgoing: > 30 µM

Incoming: Also need CC(=O)NC[C@H]1CN(c2ccc(N3CCOCC3)c(F)c2)C(=O)O1 [LINEZOLID] , thanks.
Outgoing: > 30 µM

Incoming: Also need CNC1(C)C2CCC(C2)C1(C)C (stereo not drawn) [MECAMYLAMINE] , thanks.
Outgoing: > 10 µM

Incoming: Also need CN(C)CCN(Cc1ccccc1)c1ccccn1 [TRIPELENNAMINE] , thanks.
Outgoing: > 10 µM

----------
Observed AC50, system Alpha-2B adrenergic receptor (Homo sapiens). Further: assay procedure not described here.

- CC1=C(C(=O)O)N2C(=O)[C@@H](NC(=O)[C@H](N)C3=CCC=CC3)[C@H]2SC1: > 30 µM
- CN(C)CCOC(c1ccc(Cl)cc1)c1ccccn1 (stereo not drawn): 19 µM
- CS(=O)(=O)NC(=O)CCC/C=C\C[C@H]1C(=O)C[C@@H](O)[C@@H]1/C=C/[C@@H](O)COc1ccccc1: > 30 µM

Incoming: Please give the measured AC50 for this compound: CCN(CC)C(C)C(=O)c1ccccc1 (stereo not drawn)
Outgoing: 13 µM

Incoming: Also need CN(C)CCOCC(=O)NC12CC3CC(CC(C3)C1)C2 , thanks.
Outgoing: > 30 µM

Incoming: Also need CO[C@@H]1[C@@H](OC(N)=O)[C@@H](O)[C@H](Oc2ccc3c(O)c(NC(=O)c4ccc(O)c(CC=C(C)C)c4)c(=O)oc3c2C)OC1(C)C , thanks.
Outgoing: > 30 µM

Incoming: Also need CCN1C(=O)NC(c2ccccc2)C1=O (stereo not drawn) , thanks.
Outgoing: > 30 µM

Incoming: Also need CC(C)(Oc1ccc(Cl)cc1)C(=O)OCCOC(=O)c1cccnc1 [ETOFIBRATE] , thanks.
Outgoing: > 30 µM
